# assay notes: Effect of verapamil, PEG 400 and EDTA on trans-enterocyte transport of CA
# Assay type: in vitro ADME, human
# measurement parameters: human, Caco-2, CA 50 μM, 3.0 h, + 5 mmoL/L EDTA; read-out: Papp AP to BL

# chemical smiles, unit spec, Papp A→B at 3 h, 50 μM
records = [
    ("CC(C)c1cc2c(c(O)c1O)[C@@]1(C(=O)O)CCCC(C)(C)[C@@H]1CC2", "×10⁻⁶ cm/s", 1.49),
]

---

# assay notes: Effect of verapamil, PEG 400 and EDTA on trans-enterocyte transport of CA
# Format: in vitro ADME, human
# measurement parameters: human, Caco-2, with verapamil 100 μmol/L, CA 50 μM, 1.5 h, + 100 μmoL/L verapamil; read-out: Papp AP to BL

# compound, Papp A→B at 1.5 h, 50 μM / ×10⁻⁶ cm/s
measured = [
    ("CC(C)c1cc2c(c(O)c1O)[C@@]1(C(=O)O)CCCC(C)(C)[C@@H]1CC2 [CA, Carnosic acid]", 1.84),
]

---

# assay notes: Effect of verapamil, PEG 400 and EDTA on trans-enterocyte transport of CA
# Format: in vitro ADME, human
# measurement parameters: human, Caco-2, CA 50 μM, 1.0 h, + 5% PEG 400; read-out: Papp AP to BL
# Procedure: CA was dissolved in HBSS solution at 50, 75, and 100 μM. The HBSS solution containing CA combined with 0.5% Tween 80, 5 mmol/L EDTA or 5% PEG 400 was prepared. The cumulative migration (Qr), apparent permeability coefficient (Papp), and the Papp value of bi-direction transport of CA were calculated according to formulas. […]

# chemical smiles, Papp A→B at 1 h, 50 μM
rows = [
    ("CC(C)c1cc2c(c(O)c1O)[C@@]1(C(=O)O)CCCC(C)(C)[C@@H]1CC2", "3.96 ×10⁻⁶ cm/s"),
]

---

# assay notes: Effect of verapamil, PEG 400 and EDTA on trans-enterocyte transport of CA
# Format: in vitro ADME, human
# measurement parameters: human, Caco-2, CA 100 μM, 3.0 h, + 5 mmoL/L EDTA; read-out: Papp AP to BL

# compound, Papp A→B at 3 h, 100 μM / ×10⁻⁶ cm/s
rows = [
    ("CC(C)c1cc2c(c(O)c1O)[C@@]1(C(=O)O)CCCC(C)(C)[C@@H]1CC2 [CA, Carnosic acid]", 1.56),
]

---

# assay notes: Trans-enterocyte transport of CA in Caco-2 cell monolayer
# Assay type: in vitro ADME, human
# measurement parameters: human, Caco-2, CA 100 μM, 2.5 h
observation type: Papp B→A at 2.5 h, 100 μM (×10⁻⁶ cm/s)

# molecule, observation type, unit spec, reading
data = [
    ("CC(C)c1cc2c(c(O)c1O)[C@@]1(C(=O)O)CCCC(C)(C)[C@@H]1CC2 [CA, Carnosic acid]", "Papp B→A at 2.5 h, 100 μM", "×10⁻⁶ cm/s", 1.45),
]

---

# assay notes: Trans-enterocyte transport of CA in Caco-2 cell monolayer
# Format: in vitro ADME, human
# measurement parameters: human, Caco-2, CA 100 μM, 0.5 h

# chemical smiles, Papp B→A at 0.5 h, 100 μM, ×10⁻⁶ cm/s
records = [
    ("CC(C)c1cc2c(c(O)c1O)[C@@]1(C(=O)O)CCCC(C)(C)[C@@H]1CC2", 0.39),
]
